Please find below IC50 measurements for RORc (Homo sapiens), combined from several publications.
observable: IC50 (nM)

• Cc1nn(C)cc1NC(=O)c1ccc(CN2[C@@H](C)CCC(c3ccccc3)S2(=O)=O)cc1 (stereo partly shown) = 2110
• C[C@H]1CC[C@H](c2ccccc2)S(=O)(=O)N1Cc1ccc(C2(C(C)(C)O)CCOCC2)cc1F = 32.1
• CC[C@@H](O[C@@]12CC[C@@H](c3cc(-c4c(F)cccc4F)nnc31)C2(C)C)C(=O)NNC(C)=O = 105

---

Please find below IC50 measurements for RORc (Homo sapiens), combined from several publications.
observable: IC50 (nM)

- CC1(C)[C@H]2CC[C@]1(c1ccnn1CCO)c1nnc(-c3c(F)cccc3F)cc12: 423
- COCCOCC1(c2ccc(CN3[C@@H](C)CC[C@H](c4ccccc4)S3(=O)=O)c(F)c2)CCOCC1: 70.5
- CC(NC(=O)c1cnn(C)c1)c1cc(F)c(CN2[C@@H](C)CC[C@H](c3ccccc3)S2(=O)=O)cc1F (stereo in doubt): 14
- CC1(C)[C@H]2CC[C@]1(c1cncc(NC(=O)C3COC3)n1)c1nnc(-c3c(F)cccc3F)cc12: 29.1

---

Please find below IC50 measurements for RORc (Homo sapiens), combined from several publications.
observable: IC50 (nM)

• CC1(C)[C@@H]2CC[C@@]1(C(=O)N1CCC(C#N)C1)c1nnc(-c3c(F)cccc3F)cc12 (stereo partly shown) = 126
• CC1(C)[C@H]2CC[C@]1([C@H]1CCCN(C(=O)c3cc[nH]n3)C1)c1nnc(-c3c(F)cccc3F)cc12 = 6.7
• CC(NC(=O)c1c[nH]cn1)c1cc(F)c(CN2[C@@H](C)CC[C@H](c3ccccc3)S2(=O)=O)cc1F (stereo in doubt) = 93
• CC1(C)[C@H]2CC[C@]1(Cc1nnc(CO)o1)c1nnc(-c3c(F)cccc3F)cc12 (stereo in doubt) = 388
• Cc1nnc(N(CC(F)F)C[C@@]23CC[C@@H](c4cc(-c5c(F)cccc5F)nnc42)C3(C)C)o1 = 9
• Cc1c(-c2ccccc2F)nnc2c1[C@H]1CC[C@]2(C)C1(C)C = 1220
• CCC[C@H](O[C@@]12CC[C@@H](c3cc(-c4c(F)cccc4F)nnc31)C2(C)C)C(N)=O = 200

---

pIC50: −log10 of the molar value.
Please find below pIC50 measurements for RORc (Homo sapiens, UniProt P51449), combined from several publications.
Is pIC50 at least 7? Then t. If not, f.

* C[C@H]1CCC(c2ccccc2)S(=O)(=O)N1Cc1ccc(-c2ccncc2)cc1F (stereo partly drawn) | f
* CC1(C)[C@@H]2CC[C@@]1(Cn1cccn1)c1nnc(-c3ccccc3F)cc12 | f
* CC1(C)[C@H]2CC[C@]1(c1ccnc(-c3ccc(NS(C)(=O)=O)nc3)n1)c1nnc(-c3c(F)cccc3F)cc12 | t
* CC1(C)[C@H]2CC[C@]1(COc1cnccn1)c1nnc(-c3c(F)cccc3F)cc12 | f
* C[C@H](O)CNC(=O)c1cncc([C@@]23CC[C@@H](c4cc(-c5c(F)cccc5F)nnc42)C3(C)C)n1 | t
* CC1(C)[C@H]2CC[C@]1(c1ncco1)c1nnc(-c3c(F)cccc3F)cc12 | t
* CC1(C)[C@H]2CC[C@]1(c1cncc(-n3cnc(CO)c3)n1)c1nnc(-c3c(F)cccc3F)cc12 | t
* CC1(C)[C@@H]2CC[C@@]1(C(=O)N1CCC(F)(F)C1)c1nnc(-c3c(F)cccc3F)cc12 | f
* CC(=O)N1CCN(c2ccc(CN3[C@@H](C)CCC(c4ccncc4)S3(=O)=O)c(F)c2)CC1 (single isomer, unassigned) | f
* C[C@H](O)CNC(=O)c1cccc([C@@]23CC[C@@H](c4cc(-c5c(F)cccc5F)nnc42)C3(C)C)n1 | t
* CC1(C)[C@H]2CC[C@]1(c1cccc(-c3nc([C@H](O)C(F)(F)F)n[nH]3)n1)c1nnc(-c3c(F)cccc3F)cc12 | t
